These data points were gathered from patent US20240254087A1.

- system: 5-HT2C (Homo sapiens, UniProt P28335)
- Sequence (P28335 33-458): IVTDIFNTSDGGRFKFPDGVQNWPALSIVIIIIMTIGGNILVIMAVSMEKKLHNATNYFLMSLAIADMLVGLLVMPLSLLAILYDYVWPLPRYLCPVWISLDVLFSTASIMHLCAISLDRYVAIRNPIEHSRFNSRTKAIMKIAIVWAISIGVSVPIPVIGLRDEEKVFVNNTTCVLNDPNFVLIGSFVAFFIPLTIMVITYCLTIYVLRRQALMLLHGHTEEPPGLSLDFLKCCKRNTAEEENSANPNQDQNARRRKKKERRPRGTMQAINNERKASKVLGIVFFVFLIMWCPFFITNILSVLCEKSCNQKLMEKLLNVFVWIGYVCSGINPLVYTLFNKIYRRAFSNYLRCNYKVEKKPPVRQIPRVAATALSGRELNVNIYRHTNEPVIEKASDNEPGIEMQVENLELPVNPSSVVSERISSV
- procedure summary: Ca2+ flux assay, 5-HT2C
- Format: cell-based
- Parameters: expressed in transfected cells
- test parameters: read-out: 5-HT2C Emax % 5-HT
Catalogue of compounds with associated Emax
measure name: Emax

compound: COc1cc([N+](=O)[O-])c(OC)cc1CCNCc1cccc2ccccc12 [25N-N-1-Nap (16)]
measure name: Emax
test result: < 10%
--
compound: COc1cc([N+](=O)[O-])c(OC)cc1CCNCc1cccc(C)c1O [25N-NB-2-OH-3-Me (18)]
measure name: Emax
test result: < 10%
--
compound: COc1cc([N+](=O)[O-])c(OC)cc1CCNCc1ccccc1OC [25N-NBOMe (4)]
measure name: Emax
test result: 102%
--
compound: COc1cc([N+](=O)[O-])c(OC)cc1CCNCc1ccccc1Cl [25N-NBCl (8)]
measure name: Emax
test result: 81%
--
compound: COc1ccc(OC)c(CNCCc2cc(OC)c([N+](=O)[O-])cc2OC)c1 [25N-NB-2,5-DiMeO (20)]
measure name: Emax
test result: < 10%
--
compound: COc1cc([N+](=O)[O-])c(OC)cc1CCNCc1ccc(C)cc1 [25N-NB-4-Me (23)]
measure name: Emax
test result: 14%
--
compound: COc1cc([N+](=O)[O-])c(OC)cc1CCNCc1ccccc1OC(F)F [25N-NBOCF2H (11)]
measure name: Emax
test result: 101%
--
compound: COc1cc([N+](=O)[O-])c(OC)cc1CCNCc1ccccc1F [25N-NBF (7)]
measure name: Emax
test result: 82%

----------
This section lists pKi readings for 5-HT2B (Homo sapiens).
pKi: −log10 of the molar value.
measure name: pKi

compound: COc1cc([N+](=O)[O-])c(OC)cc1CCNCc1cccc(O)c1 [25N-NB-3-OH (21)]
test result: 7.45
--
compound: COc1cc([N+](=O)[O-])c(OC)cc1CCNCc1ccccc1I [25N-NBI (10)]
test result: 7.70
--
compound: COc1cc([N+](=O)[O-])c(OC)cc1CCNCc1cccc(F)c1OC [25N-NB-2-MeO-3-F (19)]
test result: 7.60
--
compound: COc1cc([N+](=O)[O-])c(OC)cc1CCNCc1cccc(C)c1 [25N-NB-3-Me (22)]
test result: 8.54
--
compound: COc1cc([N+](=O)[O-])c(OC)cc1CCN [2C-N (1), reference compound]
test result: 6.91
--
compound: COc1cc([N+](=O)[O-])c(OC)cc1CCNCc1ccccc1[N+](=O)[O-] [25N-NBNO2 (15)]
test result: 6.72
--
compound: COc1cc([N+](=O)[O-])c(OC)cc1CCNCc1cccc(F)c1 [25N-NB-3-F (24)]
test result: 7.37
--
compound: COc1ccc(OC)c(CNCCc2cc(OC)c([N+](=O)[O-])cc2OC)c1 [25N-NB-2,5-DiMeO (20)]
test result: 6.87
